Data credit: patent US20200247894A1

measurement-target: T1, Human IL2Rγ extracellular domain expressed with a C-terminal mouse IgG2a Fc tag (human)
T1 construct: whole entry is the Fc-fused construct; also called hIL-2Rg-mFc
T1 chain: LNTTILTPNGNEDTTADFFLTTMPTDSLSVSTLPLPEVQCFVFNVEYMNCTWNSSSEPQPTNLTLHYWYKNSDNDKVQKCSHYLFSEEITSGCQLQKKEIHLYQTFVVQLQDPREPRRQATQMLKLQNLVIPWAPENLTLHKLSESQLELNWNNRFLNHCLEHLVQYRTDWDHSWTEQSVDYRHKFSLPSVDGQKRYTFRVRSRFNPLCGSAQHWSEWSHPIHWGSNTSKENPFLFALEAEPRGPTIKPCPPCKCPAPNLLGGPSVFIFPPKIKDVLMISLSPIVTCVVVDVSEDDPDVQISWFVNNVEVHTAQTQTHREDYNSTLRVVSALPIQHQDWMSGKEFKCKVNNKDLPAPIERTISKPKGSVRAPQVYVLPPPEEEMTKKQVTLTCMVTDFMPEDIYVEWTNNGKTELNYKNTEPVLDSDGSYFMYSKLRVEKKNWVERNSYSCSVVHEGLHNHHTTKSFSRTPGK
assay-details: SPR Biacore 4000, anti-hFc-captured mAb, 37 C
Protocol: Equilibrium dissociation constants (KD values) for IL-2Rγ binding to purified anti-IL2Rγ monoclonal antibodies were determined using a Biacore 4000 instrument equipped with a real-time surface plasmon resonance biosensor. […] The dissociation of monoclonal antibody bound IL2Rγ reagents were monitored for 8-10 minutes in HBS-ET running buffer. […] Binding dissociation equilibrium constants (KD) and dissociative half-lives (t_{1/2}) were calculated from the kinetic rate constants as: […]
pKd: −log10 of the molar value.
Reported pKd values follow for various binders
experimental-endpoint: pKd

binder	experimental-endpoint	measured-number
H4H13538P (antibody, human IgG4 S228P, kappa, V domains shown, fully human anti-IL2Rgamma mAb, human IgG4 Fc) VH: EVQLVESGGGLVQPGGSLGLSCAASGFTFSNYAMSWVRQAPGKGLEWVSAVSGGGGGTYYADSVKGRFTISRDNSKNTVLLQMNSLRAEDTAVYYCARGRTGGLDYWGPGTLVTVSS VL: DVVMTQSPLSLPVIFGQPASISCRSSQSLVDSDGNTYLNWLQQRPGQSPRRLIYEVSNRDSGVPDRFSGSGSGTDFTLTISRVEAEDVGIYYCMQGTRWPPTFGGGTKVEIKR	pKd	8.89
H4H12858P (antibody, human IgG4 S228P, kappa, V domains shown, fully human anti-IL2Rgamma mAb, human IgG4 Fc; also called REGN9433) VH: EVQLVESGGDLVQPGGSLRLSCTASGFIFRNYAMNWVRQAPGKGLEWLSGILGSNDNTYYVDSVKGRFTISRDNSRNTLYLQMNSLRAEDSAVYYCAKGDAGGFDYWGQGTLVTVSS VL: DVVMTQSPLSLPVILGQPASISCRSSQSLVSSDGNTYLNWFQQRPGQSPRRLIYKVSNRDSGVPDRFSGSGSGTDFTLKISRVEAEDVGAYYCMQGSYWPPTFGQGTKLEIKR	pKd	8.83
